In this section, each of the compounds is paired with its reported IC50.
- subject_of_test: UniProt P09382
- assay_procedure: Inhibition of asialofetuin binding to human recombinant Gal-1 transfected in Escherichia coli BL21 (DE3) incubated for 2 hrs by competitive solid-phase assay

# chemical_smiles, quantity_unit, IC50
records = [
    ("COC(=O)c1ccc(O[C@@H]2O[C@H](CO)[C@@H](O[C@@H]3O[C@H](CO)[C@H](O)[C@H](O)[C@H]3O)[C@H](O)[C@H]2O)c(OC)c1", "mM", 7.5),
    ("CC(=O)N[C@H]1[C@H](Oc2ccc([N+](=O)[O-])cc2)O[C@H](CO)[C@@H](O[C@@H]2O[C@H](CO)[C@H](O)[C@H](O)[C@H]2O)[C@@H]1O", "mM", 5.7),
    ("C#CCO[C@@H]1O[C@H](CO)[C@@H](O[C@@H]2O[C@H](CO)[C@H](O)[C@H](OCC(=O)O)[C@H]2O)[C@H](O)[C@H]1NC(C)=O", "mM", 7.3),
    ("CC(=O)N[C@H]1[C@H](Oc2ccc([N+](=O)[O-])cc2)O[C@H](CO)[C@@H](O[C@@H]2O[C@H](CO)[C@H](O)[C@H](OS(=O)(=O)O)[C@H]2O)[C@@H]1O", "mM", 6.1),
    ("O=[N+]([O-])c1ccc(O[C@@H]2O[C@H](CO)[C@@H](O[C@@H]3O[C@H](CO)[C@H](O)[C@H](OS(=O)(=O)O)[C@H]3O)[C@H](O)[C@H]2O)cc1", "mM", 5.9),
    ("C#CCO[C@@H]1O[C@H](CO)[C@@H](O[C@@H]2O[C@H](CO)[C@H](O)[C@H](OS(=O)(=O)O)[C@H]2O)[C@H](O)[C@H]1NC(C)=O", "mM", 4.8),
    ("COc1cc(CCC(=O)O)ccc1O[C@@H]1O[C@H](CO)[C@@H](O[C@@H]2O[C@H](CO)[C@H](O)[C@H](O)[C@H]2O)[C@H](O)[C@H]1O", "mM", 4.1),
    ("COc1cc(C(=O)OC(C)(C)C)ccc1O[C@@H]1O[C@H](CO)[C@@H](O[C@@H]2O[C@H](CO)[C@H](O)[C@H](O)[C@H]2O)[C@H](O)[C@H]1O", "mM", 3.6),
    ("CO[C@@H]1O[C@H](CO)[C@@H](O[C@@H]2O[C@H](CO)[C@H](O)[C@H](O)[C@H]2O)[C@H](O)[C@H]1O", "mM", 7.4),
    ("C#CCO[C@@H]1O[C@H](CO)[C@@H](O[C@@H]2O[C@H](CO)[C@H](O)[C@H](O)[C@H]2O)[C@H](O)[C@H]1O", "mM", 6.1),
]

----------
- subject_of_test: Galectin-1 (Homo sapiens)
- assay_procedure: Binding affinity to human recombinant Gal-1 assessed as association constant by ITC analysis
In this section, each of the compounds is paired with its reported Ka.

# compound, subject_of_test, Ka
data = [
    ("COc1cc(C(=O)OC(C)(C)C)ccc1O[C@@H]1O[C@H](CO)[C@@H](O[C@@H]2O[C@H](CO)[C@H](O)[C@H](O)[C@H]2O)[C@H](O)[C@H]1O", "Galectin-1 (Homo sapiens)", "4.9 10^3/M"),
    ("OC[C@H]1O[C@@H](O[C@H]2[C@H](O)[C@@H](O)C(O)O[C@@H]2CO)[C@H](O)[C@@H](O)[C@H]1O (some centres undefined)", "Galectin-1 (Homo sapiens)", "3.2 10^3/M"),
    ("COc1cc(C(=O)O)ccc1O[C@@H]1O[C@H](CO)[C@@H](O[C@@H]2O[C@H](CO)[C@H](O)[C@H](OS(=O)(=O)O)[C@H]2O)[C@H](O)[C@H]1O", "Galectin-1 (Homo sapiens)", "3.5 10^3/M"),
    ("COc1cc(C(=O)OC(C)(C)C)ccc1O[C@@H]1O[C@H](CO)[C@@H](O[C@@H]2O[C@H](CO)[C@H](O)[C@H](OS(=O)(=O)O)[C@H]2O)[C@H](O)[C@H]1O", "Galectin-1 (Homo sapiens)", "8.6 10^3/M"),
]

----------
- subject_of_test: Galectin-1 (Homo sapiens, UniProt P09382)
- Sequence (P09382 whole entry): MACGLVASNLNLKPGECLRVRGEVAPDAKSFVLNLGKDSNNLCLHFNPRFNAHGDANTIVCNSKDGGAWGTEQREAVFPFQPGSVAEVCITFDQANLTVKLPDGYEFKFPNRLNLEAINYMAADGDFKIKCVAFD
- assay_procedure: Potency index, ratio of test compound IC50 to (2S,3R,4S,5R,6R)-2-(((2R,3S,4R,5R,6R)-4,5 dihydroxy-2-(hydroxymethyl)-6 methoxytetrahydro-2H-pyran-3-yl)oxy)-6(hydroxymethyl)tetrahydro-2H-pyran-3,4,5-triol IC50 for inhibition of asialofetuin binding to human recombinant Gal-1 transfected in Escherichia coli BL21 (DE3) incubated for 2 hrs by competitive solid-phase assay
assay_endpoint: Ratio IC50

# chemical_smiles, measured_value
data = [
    ("C#CCO[C@@H]1O[C@H](CO)[C@@H](O[C@@H]2O[C@H](CO)[C@H](O)[C@H](OCC(=O)O)[C@H]2O)[C@H](O)[C@H]1NC(C)=O", 0.99),
    ("COc1cc(C(=O)OC(C)(C)C)ccc1O[C@@H]1O[C@H](CO)[C@@H](O[C@@H]2O[C@H](CO)[C@H](O)[C@H](O)[C@H]2O)[C@H](O)[C@H]1O", 0.48),
    ("COc1cc(/C=C/C(=O)O)ccc1O[C@@H]1O[C@H](CO)[C@@H](O[C@@H]2O[C@H](CO)[C@H](O)[C@H](O)[C@H]2O)[C@H](O)[C@H]1O", 0.65),
]

----------
- subject_of_test: Galectin-1 (Homo sapiens, UniProt P09382)
- assay_procedure: Inhibition of asialofetuin binding to human recombinant Gal-1 transfected in Escherichia coli BL21 (DE3) incubated for 2 hrs by competitive solid-phase assay
pIC50: −log10 of the molar value.

# molecule, pIC50
measured = [
    ("COc1cc(C(=O)OC(C)(C)C)ccc1O[C@@H]1O[C@H](CO)[C@@H](O[C@@H]2O[C@H](CO)[C@H](O)[C@H](OS(=O)(=O)O)[C@H]2O)[C@H](O)[C@H]1O", 2.49),
    ("CC(=O)N[C@H]1C(O)O[C@H](CO)[C@@H](O[C@@H]2O[C@H](CO)[C@H](O)[C@H](O)[C@H]2O)[C@@H]1O (stereo partly specified)", 2.12),
    ("COc1cc(CO)ccc1O[C@@H]1O[C@H](CO)[C@@H](O[C@@H]2O[C@H](CO)[C@H](O)[C@H](O)[C@H]2O)[C@H](O)[C@H]1O", 1.97),
    ("O=[N+]([O-])c1ccc(O[C@@H]2O[C@H](CO)[C@@H](O[C@@H]3O[C@H](CO)[C@H](O)[C@H](O)[C@H]3O)[C@H](O)[C@H]2O)cc1", 2.18),
    ("COc1cc(/C=C/C(=O)O)ccc1O[C@@H]1O[C@H](CO)[C@@H](O[C@@H]2O[C@H](CO)[C@H](O)[C@H](O)[C@H]2O)[C@H](O)[C@H]1O", 2.32),
    ("COc1cc(C(=O)O)ccc1O[C@@H]1O[C@H](CO)[C@@H](O[C@@H]2O[C@H](CO)[C@H](O)[C@H](OS(=O)(=O)O)[C@H]2O)[C@H](O)[C@H]1O", 2.41),
]

----------
In this section, each of the molecules is paired with its reported Ratio IC50.
- subject_of_test: Galectin-1 (Homo sapiens)
- assay_procedure: Potency index, ratio of test compound IC50 to (2S,3R,4S,5R,6R)-2-(((2R,3S,4R,5R,6R)-4,5 dihydroxy-2-(hydroxymethyl)-6 methoxytetrahydro-2H-pyran-3-yl)oxy)-6(hydroxymethyl)tetrahydro-2H-pyran-3,4,5-triol IC50 for inhibition of asialofetuin binding to human recombinant Gal-1 transfected in Escherichia coli BL21 (DE3) incubated for 2 hrs by competitive solid-phase assay

# chemical_smiles, subject_of_test, Ratio IC50
measured = [
    ("C#CCO[C@@H]1O[C@H](CO)[C@@H](O[C@@H]2O[C@H](CO)[C@H](O)[C@H](O)[C@H]2O)[C@H](O)[C@H]1O", "Galectin-1 (Homo sapiens)", 0.83),
    ("CC(=O)N[C@H]1[C@H](Oc2ccc([N+](=O)[O-])cc2)O[C@H](CO)[C@@H](O[C@@H]2O[C@H](CO)[C@H](O)[C@H](O)[C@H]2O)[C@@H]1O", "Galectin-1 (Homo sapiens)", 0.78),
    ("COc1cc(C(=O)OC(C)(C)C)ccc1O[C@@H]1O[C@H](CO)[C@@H](O[C@@H]2O[C@H](CO)[C@H](O)[C@H](OS(=O)(=O)O)[C@H]2O)[C@H](O)[C@H]1O", "Galectin-1 (Homo sapiens)", 0.43),
]

----------
- subject_of_test: Galectin-1 (Homo sapiens)
- assay_procedure: Inhibition of asialofetuin binding to human recombinant Gal-1 transfected in Escherichia coli BL21 (DE3) incubated for 2 hrs by competitive solid-phase assay
pIC50: −log10 of the molar value.
In this section, each of the compounds is paired with its reported pIC50.

# chemical_smiles, pIC50
records = [
    ("C#CCO[C@@H]1O[C@H](CO)[C@@H](O[C@@H]2O[C@H](CO)[C@H](O)[C@H](O)[C@H]2O)[C@H](O)[C@H]1NC(C)=O", 1.97),
    ("C#CCO[C@@H]1O[C@H](CO)[C@@H](O[C@@H]2O[C@H](CO)[C@H](O)[C@H](O[C@]3(C(=O)O)C[C@H](O)[C@@H](NC(C)=O)[C@H]([C@@H](O)[C@H](O)CO)O3)[C@H]2O)[C@H](O)[C@H]1NC(C)=O", 2.01),
    ("COc1cc(C=O)ccc1O[C@@H]1O[C@H](CO)[C@@H](O[C@@H]2O[C@H](CO)[C@H](O)[C@H](OS(=O)(=O)O)[C@H]2O)[C@H](O)[C@H]1O", 2.21),
]
